procedureText: chemical genetic growth profiling, strain panel (AID 1159580);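 note: tested at 20 µM; growth read once vehicle control cultures reached saturation at 30 °C; 1 = growth at the plate median or of vehicle wells; lower values mean less growth of the strain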
cond: S. cerevisiae deletion strains, growth OD, locus YPL055C, strain LGE1, active compounds read low
In all, about 5,500 compounds went through this assay and about 2,000 (36%) were called active. About 18% were inconclusive and are not listed. The list shows a part of the results.
readoutType: normalized growth
Answer with the value's number alone.

Please review the entries below; each comes with its answer.
> print(dat)
                                   molecule        readouttype  resultvalue
1  CCOC(=O)C1=C(N)Oc2ccc(Br)cc2C1C(C#N)C(=O)OCC (stereo unspecified)  normalized growth         0.98
2   C[C@H](O)C(=O)C1=Nc2c(nc(N)[nH]c2=O)NC1  normalized growth        0.971
3  CCCn1c(=O)c2[nH]c(C3CCCC3)nc2n(CCCOC(=O)c2ccc(S(=O)(=O)F)cc2)c1=O  normalized growth         1.01
4  COC(=O)C1OC(=O)C2OC23C1(C)CCC1C2(C)C(OC(C)=O)CC(OC(C)=O)C(C)(C)C2CC(=O)C13C (stereo unspecified)  normalized growth            1
5  Cc1ccc(S(=O)(=O)N[C@@H](Cc2ccccc2)C(=O)CCl)cc1  normalized growth        0.983

Let us move to another entry and its normalized growth.
So what does the record say about normalized growth for CCN(CC)C(=O)c1[nH]c(C)c(C)c1C ? 1.02

====

procedureText: chemical genetic growth profiling, strain panel (AID 1159580)
cond: S. cerevisiae deletion strains, growth OD, locus YBR023C, strain chs3, active compounds read low
Out of some 5,500 compounds screened, about 2,000 (36%) were called active. Not shown: some 18% with an inconclusive outcome. Some of the results follow.
readoutType: normalized growth
Answer with the value's number alone.

compound	readoutType	resultValue
COc1ccccc1/C=C\C(=O)O	normalized growth	1.01

Let us move to another entry and its normalized growth.
So what does the record say about normalized growth for CC1(C)C2CC(=O)[C@]3(C)C(CC[C@@]4(C)[C@H](c5ccoc5)OC(=O)C5OC543)[C@@]2(C)[C@@H](O)C[C@H]1O (stereo not given in full) ? 1.01

====

procedureText: chemical genetic growth profiling, strain panel (AID 1159580)
cond: S. cerevisiae deletion strains, growth OD, locus YLR058C, strain SHM2, active compounds read low
Among all 5,500 compounds or so, about 2,000 (36%) were called active. Inconclusive results (about 18%) are left out. The list shows a part of the results.
readoutType: normalized growth
Answer with the value's number alone.

> print(dat)
                                   compound  resultvalue
1  O=c1c(O)c(-c2ccc(O)cc2O)oc2cc(O)cc(O)c12        0.984
2  COc1ccc(-c2oc3cc(O[C@H]4O[C@H](CO)[C@@H](O)[C@H](O)[C@H]4O)c(OC)c(O)c3c(=O)c2OC)cc1O        0.989

Let us move to another entry and its normalized growth.
So what does the record say about normalized growth for C[C@@H]1CC[C@@]2(OC1)O[C@H]1CC3C4CC[C@H]5C[C@@H](O)CC[C@]5(C)C4CC[C@]3(C)[C@H]1[C@@H]2C (stereo partly drawn) ? 0.991

====

procedureText: chemical genetic growth profiling, strain panel (AID 1159580);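 note: tested at 20 µM; growth read once vehicle control cultures reached saturation at 30 °C; 1 = growth at the plate median or of vehicle wells; lower values mean less growth of the strain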
cond: S. cerevisiae deletion strains, growth OD, locus YJL129C, strain trk1, active compounds read low
Out of some 5,500 compounds screened, about 2,000 (36%) were called active. Not shown: some 18% with an inconclusive outcome. Some of the results follow.
readoutType: normalized growth

Please review the entries below; each comes with its answer.
> print(dat)
                                   molecule        readouttype       resultvalue
1  COc1ccc(-c2cc(=O)c3c(O)cc(O[C@H]4O[C@H](CO[C@@H]5O[C@@H](C)[C@H](O)[C@@H](O)[C@H]5O)[C@@H](O)[C@H](O)[C@H]4O)cc3o2)cc1  normalized growth   1.01 (inactive)
2  CC(CC(O)C1OC1(C)C)[C@@H]1CCC2(C)C3=CCC4C(C)(C)C(=O)CCC4(C)C3CC[C@@]12C (stereo partly drawn)  normalized growth  0.993 (inactive)

Let us move to another entry and its normalized growth.
So what does the record say about normalized growth for NC(=O)c1ncn([C@@H]2O[C@H](CO)[C@@H](O)[C@H]2O)n1 ? 0.995 (inactive)

====

normalized growth overview
procedureText: chemical genetic growth profiling, strain panel (AID 1159580);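 note: tested at 20 µM; growth read once vehicle control cultures reached saturation at 30 °C; 1 = growth at the plate median or of vehicle wells; lower values mean less growth of the strain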
cond: S. cerevisiae deletion strains, growth OD, locus YHR094C, strain hxt1, active compounds read low
In all, about 5,500 compounds went through this assay and about 2,000 (36%) were called active. Not shown: some 18% with an inconclusive outcome. The list shows a part of the results.
Answer with the value's number alone.

compound	normalized growth
NC(=O)CN1CCCC1=O	1.01
COC(=O)C1OC(=O)C2OC23C1(C)CCC1C2(C)C(OC(C)=O)CC(OC(C)=O)C(C)(C)C2CC(=O)C13C (stereo not given)	0.972
COc1ccc2c(c1)CCC1C2CCC2(C)C1C[C@@H](O)C2O (stereo not given in full)	0.992
CCC1OC(=O)[C@H](C)C(=O)[C@H](C)[C@@H](OC2O[C@H](C)C[C@H](N(C)C)[C@H]2O)[C@](C)(OC)C2(CCCn3cnc(-c4cccnc4)c3)C[C@@H](C)C(=O)[C@H](C)[C@H]3N(C2)C(=O)O[C@]13C (stereo not given in full)	1

So what does the record say about normalized growth for CC1(C)C2CC(=O)[C@]3(C)C(CC[C@@]4(C)[C@H](c5ccoc5)OC(=O)[C@H]5O[C@]543)[C@@]2(C)C(=O)C[C@H]1O (stereo not given in full) ? 1.02

====

procedureText: chemical genetic growth profiling, strain panel (AID 1159580);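 note: tested at 20 µM; growth read once vehicle control cultures reached saturation at 30 °C; 1 = growth at the plate median or of vehicle wells; lower values mean less growth of the strain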
cond: S. cerevisiae deletion strains, growth OD, locus YBR023C, strain chs3, active compounds read low
The whole screen tested about 5,500 compounds, of which about 2,000 (36%) were called active. About 18% were inconclusive and are not listed. The list shows a part of the results.
normalized growth overview

Please review the entries below; each comes with its answer.
> print(dat)
                                   compound      resultvalue
1  CC1CCC2(OC1)OC1CC3C4CC[C@H]5C[C@@H](O)CC[C@]5(C)C4CC(=O)[C@]3(C)C1C2C (stereo partly drawn)  1.02 (inactive)
2  CC(=O)O[C@@H]1CC2C(C)(C)C(=O)C=C[C@]2(C)C2CC[C@@]3(C)[C@H](c4ccoc4)OC(=O)[C@H]4O[C@]43[C@@]21C (stereo partly drawn)  1.01 (inactive)

Let us move to another entry and its normalized growth.
So what does the record say about normalized growth for C[C@]12CCC3c4ccc(O)cc4CCC3C1CC[C@@H]2O (stereo partly drawn) ? 0.992 (inactive)
